- Test system: CAF#5 (primary prostate cancer-associated fibroblasts of myCAF-like type)
- test: drug sensitivity score (DSS2, normalised partial AUC of dose-response, 72 h CellTiter-Glo viability) (DSS (dimensionless)); higher = more sensitive (stronger growth inhibition / cytotoxicity); extreme values may be limits of the assay
// label = class 1 if drug sensitivity score is not less than 4, otherwise class 0

Please review the following examples before continuing.
- molecule: "COc1cc(Nc2c(C#N)cnc3cc(OCCCN4CCN(C)CC4)c(OC)cc23)c(Cl)cc1Cl [Bosutinib] (tested concentration range 1-10000 nM)"
  discreteLabel: "class 1"
- molecule: "O=C1c2c(O)ccc(O)c2C(=O)c2c(NCCNCCO)ccc(NCCNCCO)c21 [Mitoxantrone] (tested concentration range 0.1-1000 nM)"
  discreteLabel: "class 1"
- molecule: "CCCOc1ccn2c(C(C)=O)cc(-c3ccccc3S(C)(=O)=O)c2c1 [GSK2801] (tested concentration range 1-10000 nM)"
  discreteLabel: "class 0"

### Prompt Is the recorded value of drug sensitivity score equal to or greater than 4 for this molecule? Cc1ccc(-c2cc(C(F)(F)F)nn2-c2ccc(S(N)(=O)=O)cc2)cc1 [Celecoxib] (tested concentration range 1-10000 nM)
### Response class 0

### Prompt Is the recorded value of drug sensitivity score equal to or greater than 4 for this molecule? C[C@]1(O)C[C@@H](c2nc(-c3ccc4ccc(-c5ccccc5)nc4c3)c3c(N)nccn32)C1 [Linsitinib] (tested concentration range 1-10000 nM)
### Response class 0

### Prompt Is the recorded value of drug sensitivity score equal to or greater than 4 for this molecule? C#Cc1cccc(Nc2ncnc3cc4c(cc23)OCCOCCOCCO4)c1 [Icotinib] (tested concentration range 1-10000 nM)
### Response class 0

### Prompt Is the recorded value of drug sensitivity score equal to or greater than 4 for this molecule? C[C@@H]1COCCN1c1cc(C2([S@](C)(=N)=O)CC2)nc(-c2cc[nH]c3nccc2-3)n1 [Ceralasertib] (tested concentration range 2.5-25000 nM)
### Response class 1

### Prompt Is the recorded value of drug sensitivity score equal to or greater than 4 for this molecule? CN(C)C/C=C/C(=O)Nc1cc2c(Nc3ccc(F)c(Cl)c3)ncnc2cc1O[C@H]1CCOC1 [Afatinib] (tested concentration range 0.1-1000 nM)
### Response class 0

### Prompt Is the recorded value of drug sensitivity score equal to or greater than 4 for this molecule? Nc1ncn([C@@H]2O[C@H](CO)[C@@H](O)[C@H]2O)c(=O)n1 [Azacitidine] (tested concentration range 1-10000 nM)
### Response class 0

### Prompt Is the recorded value of drug sensitivity score equal to or greater than 4 for this molecule? CCN1CCN(Cc2ccc(Nc3ncc(F)c(-c4cc(F)c5nc(C)n(C(C)C)c5c4)n3)nc2)CC1 [Abemaciclib] (tested concentration range 0.2-2500 nM)
### Response class 0

---

- Test system: CAF#4 (primary prostate cancer-associated fibroblasts of iCAF-like type)
- test: drug sensitivity score (DSS2, normalised partial AUC of dose-response, 72 h CellTiter-Glo viability) (DSS (dimensionless)); higher = more sensitive (stronger growth inhibition / cytotoxicity); extreme values may be limits of the assay
metricName: drug sensitivity score
Answer with a bare number; do not write a unit.

Take a look at these entries with their results.
- molecule: "CC[C@@H]1C(=O)OC[C@@H]1Cc1cncn1C [Pilocarpine] (tested concentration range 4-40000 nM)"
  assaySystem: "CAF#4"
  metricName: "drug sensitivity score"
  val: 0
- molecule: "CCN(c1cc(-c2ccc(CN3CCOCC3)cc2)cc(C(=O)NCc2c(C)cc(C)[nH]c2=O)c1C)C1CCOCC1 [Tazemetostat] (tested concentration range 1-10000 nM)"
  assaySystem: "CAF#4"
  metricName: "drug sensitivity score"
  val: 0.4

### Prompt For CCN(CC)Cc1ccc2cc(COC(=O)Nc3ccc(C(=O)NO)cc3)ccc2c1 [Givinostat] (tested concentration range 0.1-1000 nM) , what is its reported drug sensitivity score?
### Response 2.3
